- Test system: M14
- experiment_summary: NCI tumour cell line growth inhibition, 48 h
Active and inactive are the calls of the source. Cut-off read from the data, not from the text of the source: active = GI50 up to about 1.1 µM and inactive = higher.
Give measured GI50 for each item. Keep answers brief.

Consider CC1=CC(=O)c2ccc3c4ccccc4n(C)c3c2C1=O . Its measured GI50 is 17.8 µM (inactive)

Consider Oc1c(OCc2nnc(CCCCCCCCc3nnc(COc4ccc5ccccc5c4O)n3Nc3ccccc3)n2Nc2ccccc2)ccc2ccccc12 . Its measured GI50 is 1.97 µM (inactive)

Consider COc1nc2[nH]ccc2c(=O)[nH]1 . Its measured GI50 is > 100 µM (inactive)

Consider C=C(C)CCC1CCCCC(CN(C)C)C1=O (stereo not given) . Its measured GI50 is > 100 µM (inactive)

Consider O=C(NNc1ccnc2cc(Cl)ccc12)/C(=C\c1ccccc1Cl)NC(=O)c1ccccc1 . Its measured GI50 is 31.3 µM (inactive)

Consider C[C@]12CCC(=O)C=C1CC[C@@H]1[C@@H]2CC[C@]2(C)C(=O)/C(=C/c3ccc([N+](=O)[O-])cc3)C[C@@H]12 . Its measured GI50 is 29.4 µM (inactive)

Consider COC12C(COC(=O)NCCO)C3=C(C(=O)C(C)=C(N)C3=O)N1CC1NC12 (stereo not given) . Its measured GI50 is 11.5 µM (inactive)

Consider N#CCC(=O)N/N=C(/C(=O)Nc1ccccc1)C1C(=O)N(c2ccccc2)N=C1N (stereo not given) . Its measured GI50 is > 100 µM (inactive)

Consider COc1ccc(NC(=O)CC(=O)N/N=C(\C)c2cc3ccccc3oc2=O)cc1 . Its measured GI50 is > 100 µM (inactive)

Consider C[C@]12CCC(=O)[C@@H](CCC3=CC(=O)C=CC3=O)[C@@H]1CCC2=O . Its measured GI50 is 17.8 µM (inactive)

Consider OC12CCC3(OC4CCCCO4)c4ccccc4C3C1c1ccccc12 (stereo not given) . Its measured GI50 is 67.6 µM (inactive)

Consider CCn1c(=O)c2c3ccc(O)cc3oc2c2ccc(O)cc21 . Its measured GI50 is 43.2 µM (inactive)

Consider O=C(CN1C(=O)c2ccccc2C1=O)OC1C=CCCC1 (stereo not given) . Its measured GI50 is > 100 µM (inactive)

Consider COC(=O)CCC(=O)c1ccc2c(c1)CC1(Cc3ccccc3C1)C2 . Its measured GI50 is > 100 µM (inactive)

Consider CN(C)CCCNc1c2c(nc3ccc(Cl)cc13)CCCC2 . Its measured GI50 is 13.8 µM (inactive)

Consider CCn1c2ccc(C(=O)CCCN3CCCCC3)cc2c2cc(C(=O)CCCN3CCCCC3)ccc21 . Its measured GI50 is 2.04 µM (inactive)

Consider O=C(CC(=O)C(=O)Nc1ccccc1)CC(c1ccccc1)c1c(O)c2ccccc2oc1=O (stereo not given) . Its measured GI50 is > 100 µM (inactive)

Consider CCOc1cc(/C=N\O)cc(/C=N/O)c1O . Its measured GI50 is 44 µM (inactive)

Consider COC(=O)C(Cc1ccccc1)NC(=O)c1ccc(CNC(=S)NCc2cccc(CNC(=S)NCc3ccccc3)c2)cc1 (stereo not given) . Its measured GI50 is > 36 µM (inactive)

Consider COc1cc(C(=O)C/C(CCC(=O)Nc2ccc(Cl)cc2Cl)=N/NC(=O)C(=O)NN)ccc1O . Its measured GI50 is > 100 µM (inactive)

Consider O=c1c2ccccc2nc(-c2ccccc2)n1O . Its measured GI50 is 95.7 µM (inactive)

Consider O=C(/C=C/c1ccc(O)c(O)c1)c1cc(O)cc(O)c1 . Its measured GI50 is 14 µM (inactive)

Consider Cc1cc(C)nc(NS(=O)(=O)c2ccc(NC(=O)c3ccc(Cl)c4c(Nc5ccc(S(=O)(=O)Nc6cc(C)on6)cc5)c5ccccc5nc34)cc2)n1 . Its measured GI50 is 18.8 µM (inactive)

Consider Cc1ccc(C(=O)C#Cc2cnc(O)nc2O)cc1 . Its measured GI50 is 13.2 µM (inactive)

Consider C=CCNC(=S)N/N=C1\C(=O)Nc2ccc([N+](=O)[O-])cc21 . Its measured GI50 is 62.1 µM (inactive)

Consider COP(=O)(OC)[C@@](O)(c1ccccc1)[C@@H](O)[C@H](O)c1ccccc1 . Its measured GI50 is > 100 µM (inactive)

Consider CN(/N=C\c1ccnc2ccccc12)c1ccccc1 . Its measured GI50 is 18.9 µM (inactive)

Consider COc1ccc(C(=O)C(c2ccc(OC)cc2)C2(O)C(=O)Nc3c(C)cc(Cl)cc32)cc1 (stereo not given) . Its measured GI50 is 92 µM (inactive)

Consider CN(C)/N=N/c1cccc(C(N)=O)c1 . Its measured GI50 is > 100 µM (inactive)

Consider C=C(Cl)/C(=C\Cl)CCC(Cl)C(C)C (stereo not given) . Its measured GI50 is 84.9 µM (inactive)

Consider CCCCC(CCCC)=NNC(=S)SC . Its measured GI50 is 17.3 µM (inactive)

Consider O[C@H]1[C@H](O)[C@@H](O)[C@@]2(O)CC[C@@H]1N2 . Its measured GI50 is > 100 µM (inactive)

Consider CCN(CCCl)c1ccc(NC(=O)c2cc(C(=O)NCCN(C)C)cc(C(=O)Nc3ccc(N(CC)CCCl)cc3)c2)cc1 . Its measured GI50 is 9.38 µM (inactive)

Consider CC(C)(C)[Si](C)(C)OCc1cccc(OCCOc2cccc(CO[Si](C)(C)C(C)(C)C)c2[N+](=O)[O-])c1[N+](=O)[O-] . Its measured GI50 is > 100 µM (inactive)

Consider COc1ccc2c(-c3ccc(O)cc3)c(Oc3ccccc3)c(=O)oc2c1 . Its measured GI50 is > 100 µM (inactive)

Data credit: ChEMBL document CHEMBL1201862
